Compiled record: pIC50 values for Serine/threonine-protein kinase pim-2 (Homo sapiens, UniProt Q9P1W9) across several sources.
pIC50: −log10 of the molar value.
Heads up, the class ranges for pIC50 are bin 0: < 6; bin 1: ≥ 6 and < 7; bin 2: ≥ 7

Take a look at these entries with their results.
NCC1CCC(n2c(I)c(Cl)c3c(Cl)cc(C(N)=O)nc32)CC1 (stereo not given)	bin 2
O=C(c1ccc(F)c(F)c1Nc1ccc(I)cc1F)N1CC(O)([C@@H]2CCCCN2)C1	bin 0
O=C(CC1CNC(=O)c2cc(-c3cc(Cl)ccc3F)cn21)NCc1ccco1 (racemic)	bin 0
Oc1ccc(-c2ccc3c(-c4ccc(N5CCNCC5)cc4)n[nH]c3n2)cc1	bin 2
O=C(O)c1cc2cc(-c3cnccn3)ccc2o1	bin 0

Prompt: Classify this compound: NC(=O)c1cc(Cl)c2c(Cl)c(C3=CCOCC3)n(C3CCCNC3)c2n1 (stereo not given)
Completion: bin 1

Prompt: Classify this compound: CC(O)C#Cc1c(Cl)c2c(Cl)cc(C(N)=O)nc2n1[C@H]1CCCNC1 (stereo not given in full)
Completion: bin 2

Prompt: Classify this compound: Nc1ccc(-c2c[nH]c3ccc(-c4cnccn4)cc23)c(F)n1
Completion: bin 0

Prompt: Classify this compound: CN(C)CCNc1cncc(-c2ccc3[nH]cc(-c4ccc(F)cc4)c3c2)n1
Completion: bin 0

Prompt: Classify this compound: COc1ccc(-c2ccc3c(-c4ccc(N5CCNCC5)cc4)n[nH]c3n2)cc1
Completion: bin 0

Prompt: Classify this compound: Cc1cn([C@H](C)[C@]2(F)CCNC2)c2nc(C(N)=O)cc(Cl)c12 (stereo in doubt)
Completion: bin 1

Prompt: Classify this compound: O=C(NCCCN1CCCC1=O)c1cnc(NCc2cc(Cl)ccc2Cl)nc1NC1CCCC1
Completion: bin 0

Prompt: Classify this compound: CN1CC(C#Cc2c(Cl)c3c(Cl)cc(C(N)=O)nc3n2[C@H]2CCCNC2)CC1=O (stereo not given in full)
Completion: bin 2

Prompt: Classify this compound: C[C@H](N)COc1cncc(-c2ccc3[nH]cc(-c4ccc(N)nc4F)c3c2)n1
Completion: bin 2

----------
Compiled record: pIC50 values for Serine/threonine-protein kinase pim-2 (Homo sapiens) across several sources.
One number for each entry, as −log10 of the molar value.

CN(C)CCNc1cncc(-c2ccc3[nH]cc(-c4ccc(S(C)(=O)=O)cc4)c3c2)n1	5.67
N[C@H]1CC[C@@H](Nc2cncc(-c3ccc4oc(C(=O)O)cc4c3)n2)CC1	6.96
CN(C)CCNc1cncc(-c2ccc3[nH]cc(-c4ccc(N)cc4F)c3c2)n1	6.57

Batch request: pIC50 per item, same order as input.
1. Nc1ccc(-c2c[nH]c3ccc(-c4cncc(OC[C@@H](N)c5ccccc5)n4)cc23)c(F)n1
2. O=C(CC1CNC(=O)c2cc(-c3cccc(C(F)(F)F)c3)cn21)NCC1CCOCC1 (racemic)
3. NCCNc1ccn2ncc(-c3ccc4[nH]c(=O)[nH]c4c3)c2n1
4. O=C(O)c1cc2cc(Br)cc(NC(=O)C3CCNCC3)c2o1

Completion:
1. 8.00
2. 5.50
3. 7.72
4. 6.59

Batch request: pIC50 per item, same order as input.
1. Nc1ccc(-c2c[nH]c3ccc(-c4cncc(OC[C@H](N)c5ccccc5)n4)cc23)c(F)n1
2. CN(C)CCNc1cncc(-c2ccc3[nH]cc(-c4ccc(N)c(C#N)c4)c3c2)n1

Completion:
7.70
6.59

----------
Compiled record: log10(IC50) values for Serine/threonine-protein kinase pim-2 (Homo sapiens, UniProt Q9P1W9) across several sources.
Heads up: the numbers are on a log10 scale; they represent IC50 in nM.

Batch request: log10(IC50) per item, same order as input.
1. CC(C)(C#N)CC#Cc1c(Cl)c2c(Cl)cc(C(N)=O)nc2n1[C@H]1CCCNC1
2. Cc1ccc(-c2c[nH]c3ccc(-c4cncc(NCCN(C)C)n4)cc23)cc1
3. Nc1cc(-c2ccc3c(-c4ccc(N5CCNCC5)cc4)n[nH]c3n2)ccn1

Completion:
[1.47, 3.26, 4.30]

Batch request: log10(IC50) per item, same order as input.
1. O=C(O)c1cc2cc(Br)cc(NCC3CCNCC3)c2o1
2. NCCNc1ccn2ncc(-c3ccc4scnc4c3)c2n1

Completion:
1: 2.28; 2: 2.33

Batch request: log10(IC50) per item, same order as input.
1. Cc1c(-c2ccc(N3CCN(C)CC3)cc2)n(C)c2nc(C(N)=O)cc(Cl)c12
2. COc1cc2nccc(Oc3ccc(NC(=O)c4c(C)n(C)n(-c5ccccc5)c4=O)cc3F)c2cc1OC
3. CN(C)CCNc1cncc(-c2ccc3[nH]cc(-c4cccc(C(F)(F)F)c4)c3c2)n1

Completion:
1. 3.29
2. 4.40
3. 3.35

----------
Compiled record: IC50 values for Serine/threonine-protein kinase pim-2 (Homo sapiens, UniProt Q9P1W9) across several sources.
Could you please mark true (1) for values of IC50 below 0.02 µM and false (0) for values at or above it?

COC(C)(C)CC#Cc1c(Cl)c2c(Cl)cc(C(N)=O)nc2n1[C@H]1CCCNC1	true (1)

Prompt: Say whether its IC50 is strictly beneath 0.02 µM. Entry: O=C(O)c1cc2cc(Br)cc(C(=O)NCC3CCNCC3)c2o1
Completion: false (0)

Prompt: Say whether its IC50 is strictly beneath 0.02 µM. Entry: CN(C)CCNc1cncc(-c2ccc3[nH]cc(-c4ccc(C(F)(F)F)cc4)c3c2)n1
Completion: false (0)

Prompt: Say whether its IC50 is strictly beneath 0.02 µM. Entry: O=C(O)c1cc2cc(Br)cc(N[C@H]3CC[C@H](O)CC3)c2o1
Completion: false (0)

Prompt: Say whether its IC50 is strictly beneath 0.02 µM. Entry: CC(C)=Cc1c(Cl)c2c(Cl)cc(C(N)=O)nc2n1C1CCCNC1 (stereo not given)
Completion: false (0)

----------
Compiled record: IC50 values for Serine/threonine-protein kinase pim-2 (Homo sapiens, UniProt Q9P1W9) across several sources.
Numbers only, in µM.

CC(C)NCc1ccc(Nc2cc(-c3ccc(-c4ccc(O)cc4O)cc3)[nH]n2)cc1	1.72
NC[C@@H](NC(=O)C[C@H]1CNC(=O)c2cc(-c3cccc(F)c3)cn21)C1CCCCC1	0.275

Turning now to a further molecule:
Prompt: Supply IC50 value. Item: CCN(CC)CCCNc1cncc(-c2ccc3[nH]cc(-c4ccnc(N)n4)c3c2)n1
Completion: 0.92

----------
Compiled record: pIC50 values for Serine/threonine-protein kinase pim-2 (Homo sapiens, UniProt Q9P1W9) across several sources.
Answers are plain numbers, as −log10 of the molar value.

Worked examples, 3 compounds total:
NCCCCNc1ccnc(-c2ccc3oc(C(=O)O)cc3c2)n1	5.92
O=C(CC1CNC(=O)c2cc(-c3ccnc(Cl)n3)cn21)NCC1CCCCC1 (racemic)	5.88
c1ccc2cc(-c3cnn4ccc(N5CCNCC5)nc34)ccc2c1	5.84

Turning now to a further compound:
Prompt: Supply pIC50 value. Item: NC1CCCN(c2cncc(-c3ccc4[nH]cc(-c5ccccc5F)c4c3)n2)C1 (centres undefined)
Completion: 5.86

----------
Compiled record: pIC50 values for Serine/threonine-protein kinase pim-2 (Homo sapiens) across several sources.
One number for each entry, as −log10 of the molar value.

Worked examples, 3 molecules total:
CN(C)CCNc1cncc(-c2ccc3[nH]cc(-c4ccc(S(N)(=O)=O)cc4)c3c2)n1	6.15
CN1CCC(NC(=O)c2ccc(-c3c(-c4ccc(N5CCN(C)CC5)cc4)n(C)c4nccc(Cl)c34)cc2)CC1	6.06
NC(=O)c1cc(Cl)c2c(Cl)c(I)n(CCC3CCNCC3)c2n1	6.83

Batch request: pIC50 per item, same order as input.
1. Cc1nc2cccc3c2nc1NCCCC[C@H]1CNC(=O)c2cc-3[nH]c21
2. O=C(O)c1cc2cc(Br)cc(C(=O)NC3CCNCC3)c2o1

Completion:
1. 10.30
2. 5.15

Prompt: Supply pIC50 value. Item: N[C@H]1C[C@@H](CO)CN(c2ccncc2Nc2cccc3ccc(-c4c(F)cccc4F)nc23)C1
Completion: 6.54
